Sourced from ChEMBL document CHEMBL1145058

# Protocol Text: Dissociation constant (PKa) was determined
# Format: physicochemical
# reported pKa; entries follow
// no unit string in output, number only

Compound: COc1ccc(NC(=O)NO)cc1
Observed Result: 10.2
//
Compound: CN(O)C(N)=O
Observed Result: 9.95

Per the record, O=C(NO)Nc1ccccc1 has pKa of 10.3

Per the record, NC(=O)NO [HYDROXYUREA] has pKa of 10.7

Per the record, CCCCNC(=O)NO has pKa of 11

Per the record, CCN(CC)C(=O)NO has pKa of 10.8

---

# Protocol Text: Half peak chemical potential versus Ag/Agcl was determined
# Type: ADME
Experimental Endpoint: Ep2/2 (mV)
Numeric only. Scale: mV

See these solved cases before continuing.
Compound: CN(O)C(N)=O
Measurement Units: mV
Observed Result: 588

Compound: O=C(NO)Nc1ccccc1
Measurement Units: mV
Observed Result: 433

Compound: COc1ccc(NC(=O)NO)cc1
Measurement Units: mV
Observed Result: 560

Compound: CCN(CC)C(=O)NO
Measurement Units: mV
Observed Result: 705

Compound: CCCCNC(=O)NO
Measurement Units: mV
Observed Result: 693

Now for a further compound.
Per the record, NC(=O)NO [HYDROXYUREA] has Ep2/2 of 948

---

# Protocol Text: Apparent rate constant was determined
# Type: ADME
# reported rate constant app; entries follow
Numeric only. Scale: min⁻¹

See these solved cases before continuing.
Compound: CCCCNC(=O)NO
Observed Result: 0.00856
--
Compound: NC(=O)NO [HYDROXYUREA]
Observed Result: 0.000754
--
Compound: CN(O)C(N)=O
Observed Result: 0.0393
--
Compound: CCN(CC)C(=O)NO
Observed Result: 0.00226

Per the record, COc1ccc(NC(=O)NO)cc1 has rate constant app of 0.00194

Per the record, O=C(NO)Nc1ccccc1 has rate constant app of 0.0624

---

# reported Nitrite; entries follow
# Protocol Text: Nitrite production was measured with Sievers 280 nitric oxide analyzer chemiluminescence
# Format: ADME
Numeric only. Scale: µM

See these solved cases before continuing.
Molecule: CCCCNC(=O)NO
Experimental Endpoint: Nitrite
Observed Result: 2.4
--
Molecule: O=C(NO)Nc1ccccc1
Experimental Endpoint: Nitrite
Observed Result: 7.3
--
Molecule: CONC(N)=O
Experimental Endpoint: Nitrite
Observed Result: 0

Per the record, CCN(CC)C(=O)NO has Nitrite of 6.1

Per the record, CN(O)C(N)=O has Nitrite of 6.3

Per the record, NC(=O)NO [HYDROXYUREA] has Nitrite of 9.4

---

# Protocol Text: Nitrate production was measured with Sievers 280 nitric oxide analyzer chemiluminescence
# Type: ADME
# reported Nitrate; entries follow
Numeric only. Scale: µM

Molecule: NC(=O)NO [HYDROXYUREA]
Measurement Units: µM
Nitrate: 25.1
--
Molecule: CN(O)C(N)=O
Measurement Units: µM
Nitrate: 7.5
--
Molecule: CCN(CC)C(=O)NO
Measurement Units: µM
Nitrate: 18.5
--
Molecule: O=C(NO)Nc1ccccc1
Measurement Units: µM
Nitrate: 26.1
--
Molecule: CONC(N)=O
Measurement Units: µM
Nitrate: 0

Per the record, CCCCNC(=O)NO has Nitrate of 3.5
